- tgt: IKZF2 (Homo sapiens (Human), UniProt Q96SW2+Q9UKS7)
- Sequence (Q9UKS7 whole entry): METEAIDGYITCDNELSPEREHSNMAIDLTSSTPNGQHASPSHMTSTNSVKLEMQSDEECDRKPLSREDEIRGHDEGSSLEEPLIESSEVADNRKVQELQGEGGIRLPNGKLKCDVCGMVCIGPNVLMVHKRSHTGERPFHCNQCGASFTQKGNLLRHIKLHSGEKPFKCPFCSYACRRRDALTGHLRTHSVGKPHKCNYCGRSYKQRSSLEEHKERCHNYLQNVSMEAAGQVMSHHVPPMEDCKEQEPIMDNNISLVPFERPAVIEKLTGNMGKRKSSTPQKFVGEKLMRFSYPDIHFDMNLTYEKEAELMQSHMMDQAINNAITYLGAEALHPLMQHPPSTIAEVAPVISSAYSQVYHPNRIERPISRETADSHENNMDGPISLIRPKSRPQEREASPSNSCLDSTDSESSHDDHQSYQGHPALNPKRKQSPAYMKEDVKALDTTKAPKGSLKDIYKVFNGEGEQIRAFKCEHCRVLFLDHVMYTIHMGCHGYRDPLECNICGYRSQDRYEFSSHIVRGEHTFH
- Sequence (Q96SW2 whole entry): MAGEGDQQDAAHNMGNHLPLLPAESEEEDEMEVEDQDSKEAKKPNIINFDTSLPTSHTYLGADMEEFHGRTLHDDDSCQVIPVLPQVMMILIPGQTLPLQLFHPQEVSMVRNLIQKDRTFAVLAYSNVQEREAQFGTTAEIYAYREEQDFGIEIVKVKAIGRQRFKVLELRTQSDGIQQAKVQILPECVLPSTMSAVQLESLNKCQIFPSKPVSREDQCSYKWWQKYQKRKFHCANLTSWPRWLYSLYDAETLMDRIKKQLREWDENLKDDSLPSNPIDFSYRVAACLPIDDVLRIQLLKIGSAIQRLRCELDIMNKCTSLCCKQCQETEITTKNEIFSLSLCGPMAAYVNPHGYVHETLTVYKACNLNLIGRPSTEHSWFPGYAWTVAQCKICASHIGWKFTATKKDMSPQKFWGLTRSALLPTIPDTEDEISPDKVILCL
- Sequence (Q16531 whole entry partner): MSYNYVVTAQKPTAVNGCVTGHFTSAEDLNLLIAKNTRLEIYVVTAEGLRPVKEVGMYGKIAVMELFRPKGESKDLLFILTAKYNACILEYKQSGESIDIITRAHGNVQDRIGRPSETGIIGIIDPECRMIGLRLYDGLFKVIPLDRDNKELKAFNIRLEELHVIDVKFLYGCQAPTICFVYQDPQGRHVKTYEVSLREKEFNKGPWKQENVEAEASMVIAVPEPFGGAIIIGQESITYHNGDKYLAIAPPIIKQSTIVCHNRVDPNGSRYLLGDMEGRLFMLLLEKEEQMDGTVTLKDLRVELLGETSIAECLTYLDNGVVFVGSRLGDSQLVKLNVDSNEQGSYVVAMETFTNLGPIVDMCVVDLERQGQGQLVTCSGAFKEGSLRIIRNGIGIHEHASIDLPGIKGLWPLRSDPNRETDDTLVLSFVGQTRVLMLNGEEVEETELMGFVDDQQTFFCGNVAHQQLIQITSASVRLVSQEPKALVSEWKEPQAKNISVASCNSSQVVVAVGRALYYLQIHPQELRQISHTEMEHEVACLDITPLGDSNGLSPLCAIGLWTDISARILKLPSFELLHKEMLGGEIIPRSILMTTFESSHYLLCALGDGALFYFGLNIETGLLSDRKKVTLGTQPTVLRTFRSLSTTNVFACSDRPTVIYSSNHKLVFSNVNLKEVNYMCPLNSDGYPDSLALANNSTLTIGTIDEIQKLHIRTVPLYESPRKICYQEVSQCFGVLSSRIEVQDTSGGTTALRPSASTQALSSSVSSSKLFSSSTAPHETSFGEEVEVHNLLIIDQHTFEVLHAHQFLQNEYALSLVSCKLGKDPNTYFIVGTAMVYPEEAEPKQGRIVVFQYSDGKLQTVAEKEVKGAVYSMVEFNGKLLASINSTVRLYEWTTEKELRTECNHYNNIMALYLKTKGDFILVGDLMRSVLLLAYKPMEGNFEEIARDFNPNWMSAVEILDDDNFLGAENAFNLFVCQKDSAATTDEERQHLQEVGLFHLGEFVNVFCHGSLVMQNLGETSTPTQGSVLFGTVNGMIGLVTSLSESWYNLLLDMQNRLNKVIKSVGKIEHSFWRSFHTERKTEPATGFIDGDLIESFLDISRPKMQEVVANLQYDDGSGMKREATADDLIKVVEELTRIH
- run-description: IKZF2 HiBiT Assay (Jurkat-IKZF2-HiBiT cell line)
- Assay type: cell-based
- condition-notes: Jurkat-IKZF2-HiBiT cells, 24 hours; read-out: HiBit assay degradation analysis Dmax
property-name: Dmax

The following compounds have reported results that may help.
[
  {
    "compound": "CC1(C)CCC(CN2CCC3(CC2)COc2c3ccc3c2CN(C2CCC(=O)NC2=O)C3=O)CC1 (stereo not shown)",
    "Dmax": "< 40%"
  },
  {
    "compound": "O=C1CCC(N2Cc3c(ccc4c3OCC43CCN(Cc4cccc(C5CC5)c4)CC3)C2=O)C(=O)N1 (stereo not shown)",
    "Dmax": "40 to 60%"
  },
  {
    "compound": "COCCn1cc2cc(CN3CCC4(CC3)COc3c4ccc4c3CN(C3CCC(=O)NC3=O)C4=O)ccc2n1 (stereo not shown)",
    "Dmax": "< 40%"
  },
  {
    "compound": "O=C1CCC(N2Cc3c(ccc4c3OCC43CCN(Cc4ncnn4-c4ccccc4)CC3)C2=O)C(=O)N1 (stereo not shown)",
    "Dmax": "< 40%"
  },
  {
    "compound": "O=C1CC[C@H](N2Cc3c(ccc4c3OCC43CCN(Cc4cnn(C[C@H]5C[C@@H]5c5ccccc5)c4)CC3)C2=O)C(=O)N1",
    "Dmax": "60 to 80%"
  },
  {
    "compound": "O=C1CCC(N2Cc3c(ccc4c3OCC43CCN(Cc4cccc5[nH]ccc45)CC3)C2=O)C(=O)N1 (stereo not shown)",
    "Dmax": "> 80%"
  }
]

Pending compound:
Q: # lookup: Dmax of O=C1CCC(N2Cc3c(ccc4c3OCC43CCN(Cc4cccc5occc45)CC3)C2=O)C(=O)N1 (stereo not shown)
A: 60 to 80%
